Target: wild-type human topoisomerase II α (Homo sapiens, UniProt P11388)
Sequence (P11388 whole entry): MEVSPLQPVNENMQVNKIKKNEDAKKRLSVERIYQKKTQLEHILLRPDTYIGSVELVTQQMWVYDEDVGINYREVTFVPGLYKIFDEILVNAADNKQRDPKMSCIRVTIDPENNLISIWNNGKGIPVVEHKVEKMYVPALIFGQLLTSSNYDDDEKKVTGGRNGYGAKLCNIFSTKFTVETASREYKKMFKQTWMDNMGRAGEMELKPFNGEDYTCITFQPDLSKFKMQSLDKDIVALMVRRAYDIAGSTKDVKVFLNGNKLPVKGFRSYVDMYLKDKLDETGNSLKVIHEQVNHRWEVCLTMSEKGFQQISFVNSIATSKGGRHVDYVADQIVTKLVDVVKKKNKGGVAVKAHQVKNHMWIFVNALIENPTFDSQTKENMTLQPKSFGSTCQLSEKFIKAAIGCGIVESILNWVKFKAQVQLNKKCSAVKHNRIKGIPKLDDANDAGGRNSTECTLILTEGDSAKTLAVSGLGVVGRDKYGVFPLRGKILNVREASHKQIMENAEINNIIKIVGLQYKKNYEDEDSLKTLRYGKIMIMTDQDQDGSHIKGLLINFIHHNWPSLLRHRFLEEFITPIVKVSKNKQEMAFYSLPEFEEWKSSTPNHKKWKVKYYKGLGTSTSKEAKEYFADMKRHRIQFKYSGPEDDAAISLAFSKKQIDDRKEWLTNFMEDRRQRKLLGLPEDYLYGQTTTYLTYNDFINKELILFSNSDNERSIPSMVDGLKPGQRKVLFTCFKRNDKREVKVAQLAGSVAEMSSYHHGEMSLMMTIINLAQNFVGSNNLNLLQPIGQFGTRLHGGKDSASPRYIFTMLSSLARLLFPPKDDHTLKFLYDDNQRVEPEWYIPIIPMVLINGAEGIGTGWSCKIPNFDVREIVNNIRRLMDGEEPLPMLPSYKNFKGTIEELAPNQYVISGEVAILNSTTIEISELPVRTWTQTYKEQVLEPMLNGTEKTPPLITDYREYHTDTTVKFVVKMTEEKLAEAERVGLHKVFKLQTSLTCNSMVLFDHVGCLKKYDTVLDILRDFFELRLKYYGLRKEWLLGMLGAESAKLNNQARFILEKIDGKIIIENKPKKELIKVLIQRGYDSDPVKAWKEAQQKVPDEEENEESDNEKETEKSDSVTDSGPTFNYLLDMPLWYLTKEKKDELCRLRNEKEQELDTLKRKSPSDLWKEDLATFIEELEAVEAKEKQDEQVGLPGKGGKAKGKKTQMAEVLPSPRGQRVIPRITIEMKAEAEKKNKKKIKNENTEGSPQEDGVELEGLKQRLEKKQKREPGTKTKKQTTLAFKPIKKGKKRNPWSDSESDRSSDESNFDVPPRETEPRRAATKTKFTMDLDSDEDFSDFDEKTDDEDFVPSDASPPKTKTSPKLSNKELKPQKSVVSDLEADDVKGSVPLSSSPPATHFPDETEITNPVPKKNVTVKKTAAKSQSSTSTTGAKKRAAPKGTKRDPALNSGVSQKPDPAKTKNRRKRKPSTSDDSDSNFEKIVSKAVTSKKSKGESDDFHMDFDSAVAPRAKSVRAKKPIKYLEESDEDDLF
measured metric: IC50

The value of IC50 recorded for Nc1nc2nc[nH]c2c(=S)[nH]1 [6-thioguanine, reference compound] when tested on wild-type human topoisomerase II α (Homo sapiens, UniProt P11388) reads ~50 µM

* * *

Molecular target: topoisomerase II α (Homo sapiens)
Sequence (P11388 whole entry): as above
Assay: Topoisomerase II ATPase assay (coupled, NADH oxidation)
Format: biochemical
Parameters: made in house; host or cells: yeast (over-expressing yeast cells)
Conditions: in the presence of DNA (DNA-stimulated); read-out: IC50, inhibition of ATPase activity
measured metric: IC50 (µM)
Write the value in µM as a bare number.

Answered examples (2):
compound	tested system	units symbol	IC50
Nc1nc(OCc2ccccc2)c2nc[nH]c2n1	topoisomerase II α (Homo sapiens)	µM	1000
Nc1nc(OCC2CCCCC2)c2nc[nH]c2n1	topoisomerase II α (Homo sapiens)	µM	300

Could you now consider this next compound?
Form field IC50, entry C[C@@H](CN1CC(=O)NC(=O)C1)N1CC(=O)NC(=O)C1 [ICRF-187, reference compound] : 1

* * *

Listing of recorded log10 IC50 by entry.
Target: UniProt P11388
Test: Topoisomerase II ATPase assay (coupled, NADH oxidation)
Assay type: biochemical
Parameters: made in house; host or cells: yeast (over-expressing yeast cells)
Conditions: measured in the absence of DTT; read-out: IC50
Experimental: The reaction was monitored spectrophotometrically at 340 nm using a Bio-Tek EL808 Ultra Micro plate Reader connected to a computer with KC4 Software installed (Bio-Tek Instruments, U.S.). The change in absorbance was related to ADP production using A340^1M=6220 cm^−1. […] The rate of ATP hydrolysis, V, was determined from the linear part of the curve. The steady-state rate of ATP hydrolysis was determined using a coupled ATPase assay as described herein. […]
Scale: log10; quantity: IC50; unit before log: µM

compound	log10 IC50
Cc1ccc(CSc2nc(N)nc3[nH]cnc23)cc1	1.15

Form field log10 IC50, entry "Nc1nc(SCc2ccc(F)cc2)c2nc[nH]c2n1" : 1.73

Form field log10 IC50, entry "N#CCSc1nc(N)nc2[nH]cnc12" : 1.28

Form field log10 IC50, entry "CCOC(=O)c1cc([N+](=O)[O-])c(Sc2ncnc3[nH]cnc23)c([N+](=O)[O-])c1" : 0.44

Form field log10 IC50, entry "CNc1ncnc(Sc2nc(N)nc3[nH]cnc23)c1[N+](=O)[O-]" : 1.53

Form field log10 IC50, entry Cn1cnc([N+](=O)[O-])c1Sc1nc(N)nc2c1ncn2C1CC(O)C(CO)O1 (centres unmarked) : 2.08

Form field log10 IC50, entry "CCn1c(C)nc([N+](=O)[O-])c1Sc1nc(N)nc2[nH]cnc12" : 0.90

Form field log10 IC50, entry "CC(=O)OCSc1ncnc2c1ncn2CN1CCOCC1" : 2.08

Form field log10 IC50, entry "CSc1nc(Cl)c(Br)c(Sc2nc(N)nc3[nH]cnc23)n1" : 1.10

Form field log10 IC50, entry Nc1nc(Sc2cc([N+](=O)[O-])c3nonc3c2)c2ncn(C3OC(CO)C(O)C3O)c2n1 (centres unmarked) : -0.41

Form field log10 IC50, entry "Nc1nc(SC/C=C/c2ccccc2)c2nc[nH]c2n1" : 1.84

Form field log10 IC50, entry "Nc1nc(SCc2ccccc2)c2[nH]cnc2n1" : 1.13

Form field log10 IC50, entry "CCSc1nc(N)c(Br)c(Sc2nc(N)nc3[nH]cnc23)n1" : 1.56

Form field log10 IC50, entry "Nc1nc(Sc2ccc([N+](=O)[O-])c3nonc23)c2[nH]cnc2n1" : -0.43

Form field log10 IC50, entry "Nc1nc(SCCCc2ccccc2)c2nc[nH]c2n1" : 2.18

Form field log10 IC50, entry "O=[N+]([O-])c1ccc(Sc2ncnc3[nH]cnc23)c2nonc12" : -0.11

Form field log10 IC50, entry "CCCCCSc1nc(N)nc2[nH]cnc12" : 1.93

* * *

Molecular target: topoisomerase II α (Homo sapiens)
Assay: Topoisomerase II ATPase assay (coupled, NADH oxidation)
Format: biochemical
Parameters: made in house; host or cells: yeast (over-expressing yeast cells)
Conditions: in the presence of DNA (DNA-stimulated); read-out: IC50, inhibition of ATPase activity
pIC50: −log10 of the molar value.
measured metric: pIC50

compound	tested system	measured metric	reading
S=c1[nH]c(=S)c2[nH]cnc2[nH]1	topoisomerase II α (Homo sapiens)	pIC50	~5.52
Sc1ncnc2nc[nH]c12	topoisomerase II α (Homo sapiens)	pIC50	~4.00
Nc1nc2nc[nH]c2c(=S)[nH]1 [6-thioguanine, reference compound]	topoisomerase II α (Homo sapiens)	pIC50	~4.52

Could you now consider this next compound?
The value of pIC50 recorded for "Sc1ncc2nc[nH]c2n1" when tested on topoisomerase II α (Homo sapiens) reads ~5.52
